# reported pKd; entries follow
Molecular target: T1, cynomolgus monkey CD3 E&D complex protein (Sino Biological Inc., CT032-00323H) (cynomolgus monkey, UniProt Q95LI5 22-117; Q95LI8 22-105)
T1 construct: bought heterodimer
T1 sequence (Q95LI5 22-117, chain 1 of 2): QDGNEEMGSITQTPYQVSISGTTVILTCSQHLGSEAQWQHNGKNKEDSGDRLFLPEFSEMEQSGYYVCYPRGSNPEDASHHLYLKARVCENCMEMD
T1 sequence (Q95LI8 22-105, chain 2 of 2): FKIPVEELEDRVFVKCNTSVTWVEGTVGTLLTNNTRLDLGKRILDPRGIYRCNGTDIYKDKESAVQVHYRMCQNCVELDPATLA
Assay: BLI, antibody on sensor
Protocol: 100 μl SD buffer, various antibodies, human CD3 E&D complex protein (Sino Biological Inc., CT026H0323H), and cynomolgus monkey CD3 E&D complex protein (Sino Biological Inc., CT032-00323H) were added into 96-well black polystyrene semi-quantitative micro-well plate (Greiner, 675076) respectively. Fortebio Octet Red 96 was used for detection, and the sensor position was selected according to the sample position. […]
// returns pKd (minus log10 of molar concentration), number only

{"columns": ["Binder", "Result type", "Numeric readout"],
 "data": [
  ["hzsp34.18 (antibody, human IgG1, lambda, L234A L235A, V domains shown, IgG1 L234A L235A, lambda) VH: EVQLVESGGGLVQPGGSLKLSCAASGFTFNTYAMNWVRQASGKGLEWVGRIRSKYNNYATYYADSVKDRFTISRDDSKSTLYLQMNSLKTEDTAVYYCARHGNFGNSYVSWFAYWGQGTTVTVSS VL: QAVVTQEPSLTVSPGGTVTLTCRSSTGAVTTSNYANWVQQKPGQAPRGLIGGTNKRAPGVPARFSGSLLGGKAALTLLGAQPEDEAEYYCALWYSNLWVFGQGTKLTVLG", "pKd", 9.17],
  ["hzsp34.23 (antibody, human IgG1, lambda, L234A L235A, V domains shown, IgG1 L234A L235A, lambda) VH: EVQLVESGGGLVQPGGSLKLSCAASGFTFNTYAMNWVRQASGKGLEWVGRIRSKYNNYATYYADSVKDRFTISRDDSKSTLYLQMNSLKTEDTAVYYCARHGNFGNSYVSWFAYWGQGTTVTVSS VL: QAVVTQEPSLTVSPGGTVTLTCRSSTGAVTTSNYANWVQQKPGQAPRGLIGGTNKRAPGVPARFSGSLLGDKAALTLLGAQPEDEAEYYCALWYSNLWVFGQGTKLTVLG", "pKd", 9.22]
]}

Using the record for hzsp34.20 (antibody, human IgG1, lambda, L234A L235A, V domains shown, IgG1 L234A L235A, lambda) VH: EVQLVESGGGLVQPGGSLKLSCAASGFTFNTYAMNWVRQASGKGLEWVARIRSKYNNYATYYADSVKDRFTISRDDSKSTLYLQMNSLKTEDTAVYYCARHGNFGQSYVSWFAYWGQGTTVTVSS VL: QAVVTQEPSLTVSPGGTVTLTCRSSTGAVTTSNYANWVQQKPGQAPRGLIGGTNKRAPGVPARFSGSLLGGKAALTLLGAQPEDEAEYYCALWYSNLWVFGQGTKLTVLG , state its measured pKd.
9.12

Specify reported pKd for the binder shown: hzsp34.43 (antibody, human IgG1, kappa, L234A L235A, V domains shown, IgG1 L234A L235A, kappa) VH: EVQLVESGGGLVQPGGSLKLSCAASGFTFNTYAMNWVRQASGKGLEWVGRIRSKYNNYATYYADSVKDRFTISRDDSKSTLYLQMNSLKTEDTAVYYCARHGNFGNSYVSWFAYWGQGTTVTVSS VL: EIVMTQSPATLSVSPGERATLSCRSSTGAVTTSNYANWVQQKPGQAPRGLIGGTNKRAPGVPARFSGSGSGDEFTLTISSLQSEDFAVYYCALWYSNLWVFGQGTKLTVLR
8.10

Give reported pKd value for hzsp34.12 (antibody, human IgG1, lambda, L234A L235A, V domains shown, IgG1 L234A L235A, lambda) VH: EVQLVESGGGLVQPGGSLKLSCAASGFTFNTYAMNWVRQASGKGLEWVGRIRSKYNNYATYYADSVKDRFTISRDDSKNTLYLQMNSLKTEDTAVYYCARHGNFGNSYVSWFAYWGQGTTVTVSS VL: QAVVTQEPSLTVSPGGTVTLTCRSSTGAVTTSNYANWVQQKPGQAPRTLIGGTNKRAPGVPARFSGSLLGGKAALTLLGAQPEDEAEYYCALWYSNLWVFGQGTKLTVLG
8.32
